Measured IC50 values are reported for all entries that follow.
Target: human somatostatin receptor subtype 3 (human, UniProt P32745 1-418)
Construct: whole, on cells; Membrane preparations of transfected CHO-K1 cells; also called SSTR3; SSTR-3
Sequence (P32745 whole entry): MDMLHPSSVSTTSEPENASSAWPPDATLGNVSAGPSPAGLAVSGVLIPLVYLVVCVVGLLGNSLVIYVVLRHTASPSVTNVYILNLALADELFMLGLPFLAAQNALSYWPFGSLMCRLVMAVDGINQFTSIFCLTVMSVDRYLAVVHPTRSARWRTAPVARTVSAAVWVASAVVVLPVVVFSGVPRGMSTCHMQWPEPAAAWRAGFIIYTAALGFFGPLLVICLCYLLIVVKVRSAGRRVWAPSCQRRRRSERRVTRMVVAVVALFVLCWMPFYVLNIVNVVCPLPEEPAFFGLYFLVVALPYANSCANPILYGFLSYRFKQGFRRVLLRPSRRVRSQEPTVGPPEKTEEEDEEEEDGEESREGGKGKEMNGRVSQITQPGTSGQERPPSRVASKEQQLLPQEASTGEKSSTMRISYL
Experiment: radioligand displacement, CHO-K1 membranes expressing human SSTR3; competitor [125I-Tyr11]SS-14
Readout kind: IC50 (nM)

> print(dat)
                                  substance                            assayed.target  unit.label  numeric.readout
1  Compound 2: cyclo[Tic-Tyr-D-Trp-Lys-Abu-Phe] (peptide)  human somatostatin receptor subtype 3 (human, UniProt P32745 1-418)          nM              412
2  Compound 6: Cpa-cyclo(D-Cys-4-Pal-D-Trp-Lys-Thr-Cys)-Nal-NH2 (peptide)  human somatostatin receptor subtype 3 (human, UniProt P32745 1-418)          nM               44

---

Target: human somatostatin receptor subtype 5 (human, UniProt P35346 1-364)
Construct: whole, on cells; also called SSTR5; SSTR-5
Sequence (P35346 whole entry): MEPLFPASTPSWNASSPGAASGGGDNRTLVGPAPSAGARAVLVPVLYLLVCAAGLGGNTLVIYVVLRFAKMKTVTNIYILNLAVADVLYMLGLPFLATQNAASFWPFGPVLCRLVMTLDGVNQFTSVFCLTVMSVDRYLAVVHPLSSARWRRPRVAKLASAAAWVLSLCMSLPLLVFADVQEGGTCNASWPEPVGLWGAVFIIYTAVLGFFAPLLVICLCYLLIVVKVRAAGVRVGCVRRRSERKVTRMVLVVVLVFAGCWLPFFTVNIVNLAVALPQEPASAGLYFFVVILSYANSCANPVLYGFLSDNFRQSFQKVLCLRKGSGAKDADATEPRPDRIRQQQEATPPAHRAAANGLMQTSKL
Test: radioligand displacement, CHO-K1 membranes expressing human SSTR5; competitor [125I-Tyr11]SS-14
Listed next: entries and their corresponding IC50.
Readout kind: IC50 (nM)

> print(dat)
                                  substance  readout.kind  numeric.readout
1  Compound 6: Cpa-cyclo(D-Cys-4-Pal-D-Trp-Lys-Thr-Cys)-Nal-NH2 (peptide)          IC50             86.5
2  Compound 2: cyclo[Tic-Tyr-D-Trp-Lys-Abu-Phe] (peptide)          IC50              214

---

Each item that follows carries a reported IC50.
Target: human somatostatin receptor subtype 1 (human, UniProt P30872 1-391)
Construct: whole, on cells; Membrane preparations of transfected CHO-K1 cells; also called SSTR1; SSTR-1
Sequence (P30872 whole entry): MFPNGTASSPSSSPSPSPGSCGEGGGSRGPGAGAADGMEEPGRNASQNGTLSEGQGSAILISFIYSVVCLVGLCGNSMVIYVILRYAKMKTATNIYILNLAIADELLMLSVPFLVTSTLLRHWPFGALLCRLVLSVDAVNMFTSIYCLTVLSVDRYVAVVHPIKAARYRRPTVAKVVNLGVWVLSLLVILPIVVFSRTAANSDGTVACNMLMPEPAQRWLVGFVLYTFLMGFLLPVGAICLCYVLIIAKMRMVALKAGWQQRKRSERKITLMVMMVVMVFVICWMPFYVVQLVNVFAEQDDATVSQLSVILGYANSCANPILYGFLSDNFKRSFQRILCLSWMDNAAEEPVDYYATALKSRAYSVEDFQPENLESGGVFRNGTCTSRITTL
Experiment: radioligand displacement, CHO-K1 membranes expressing human SSTR1; competitor [125I-Tyr11]SS-14
Readout kind: IC50 (nM)

> print(dat)
                                  substance  numeric.readout
1  Compound 2: cyclo[Tic-Tyr-D-Trp-Lys-Abu-Phe] (peptide)             1000
2  Compound 6: Cpa-cyclo(D-Cys-4-Pal-D-Trp-Lys-Thr-Cys)-Nal-NH2 (peptide)             2760
3  Compound 3: 4-(2-Hydroxyethyl)-1-piperazinylacetyl-D-Phe-cyclo(Cys-Tyr-D-Trp-Lys-Abu-Cys)-Thr-NH2 (peptide)             5210
